The molecules listed here are annotated with their inhibition.
biological target: D(2) dopamine receptor (Homo sapiens) (UniProt P14416); test: HTS Assay for Allosteric Antagonists of the Human D2 Dopamine Receptor: Primary Screen for Antagonists; conditions: HEK293 TREx D2 cells, calcium flux, dopamine EC80; at 10 µM; hits give high values; note: 0% is about no effect
Sequence (P14416 whole entry, looked up): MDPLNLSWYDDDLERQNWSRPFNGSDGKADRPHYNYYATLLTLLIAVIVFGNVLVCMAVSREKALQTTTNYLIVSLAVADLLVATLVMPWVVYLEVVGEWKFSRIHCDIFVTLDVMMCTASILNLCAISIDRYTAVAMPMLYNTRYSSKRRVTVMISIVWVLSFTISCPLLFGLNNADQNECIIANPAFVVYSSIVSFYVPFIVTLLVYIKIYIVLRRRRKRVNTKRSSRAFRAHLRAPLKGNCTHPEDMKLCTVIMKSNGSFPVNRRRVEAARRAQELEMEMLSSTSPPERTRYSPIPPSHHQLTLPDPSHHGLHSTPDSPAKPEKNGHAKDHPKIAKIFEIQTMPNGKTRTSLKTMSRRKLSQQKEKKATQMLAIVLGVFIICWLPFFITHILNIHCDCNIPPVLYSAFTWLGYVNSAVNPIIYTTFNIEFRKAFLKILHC
About 6,900 (2%) of roughly 340,000 compounds were called active. The list comes from a sample in which actives are over-represented; it also holds close analogues and randomly drawn compounds.
Your answer should be a plain number; it is taken to be in %.

Query :: Provide inhibition, system D(2) dopamine receptor (Homo sapiens) (UniProt P14416), entry COCc1c(C(=O)OCC(=O)Nc2ccc(OC(F)F)cc2)oc2ccccc12
Result :: -10.8
